Assay: Water solubility by quantitative 1H-NMR in D2O, alone or with cyclodextrin
Format: physicochemical
Conditions: D2O with β-cyclodextrin, 25 °C, aqueous with cosolvent or surfactant or cyclodextrin, thermodynamic from solid; D2O, 298 K, β-CD 10 mM; read-out: Water Solubility, Compound + β-CD
Description: For all the Se-NSAID derivatives, the formation of inclusion complexes either with β- or γ-CDs was evaluated by quantitative proton nuclear magnetic resonance (^1H-NMR) spectroscopy (Figures S1–S40 in Supplementary Materials). […] Additionally, given the size of the studied molecules, a larger CD such as γ-CDs was also evaluated. The experimental formation of inclusion complexes with either β-CD or γ-CD was evaluated via quantitative ^1H-NMR spectroscopy. […]
MEASUREMENT_TYPE: solubility (µM)
Write down the numeric answer in µM and omit the unit.

COMPOUND	solubility / µM
COC(=O)C[Se]C(=O)Cc1c(C)n(C(=O)c2ccc(Cl)cc2)c2ccc(OC)cc12	157
COc1ccc2cc(C(C)C(=O)[Se]CCC#N)ccc2c1 (stereo not shown)	992
CC(C)Cc1ccc(C(C)C(=O)[Se][Se]C(=O)C(C)c2ccc(CC(C)C)cc2)cc1 (stereo not shown)	5420
COc1ccc2c(c1)c(CC(=O)[Se][Se]C(=O)Cc1c(C)n(C(=O)c3ccc(Cl)cc3)c3ccc(OC)cc13)c(C)n2C(=O)c1ccc(Cl)cc1	7.96

Return reported solubility; argument: `CC(=O)Oc1ccccc1C(=O)[Se][Se]C(=O)c1ccccc1OC(C)=O`
101

# iterate: `COc1ccc2c(c1)c(CC(=O)[Se]CC#N)c(C)n2C(=O)c1ccc(Cl)cc1`
45.3

Okay, and `COc1ccc2c(c1)c(CC(=O)[Se]CC(=O)O)c(C)n2C(=O)c1ccc(Cl)cc1` ?
56.5

For `COc1ccc2cc([C@H](C)C(=O)[Se][Se]C(=O)[C@@H](C)c3ccc4cc(OC)ccc4c3)ccc2c1` then?
0.219

And then CC(C(=O)[Se][Se]C(=O)C(C)c1cccc(C(=O)c2ccccc2)c1)c1cccc(C(=O)c2ccccc2)c1 (stereo not shown) , what is it?
27

Also check `COc1ccc2c(c1)c(CC(=O)[Se]CCC#N)c(C)n2C(=O)c1ccc(Cl)cc1`
45.5
